These measurements were taken from patent US20080159958A1.

- target-entity: UniProt Q9QYN8
- Sequence (Q9QYN8 whole entry): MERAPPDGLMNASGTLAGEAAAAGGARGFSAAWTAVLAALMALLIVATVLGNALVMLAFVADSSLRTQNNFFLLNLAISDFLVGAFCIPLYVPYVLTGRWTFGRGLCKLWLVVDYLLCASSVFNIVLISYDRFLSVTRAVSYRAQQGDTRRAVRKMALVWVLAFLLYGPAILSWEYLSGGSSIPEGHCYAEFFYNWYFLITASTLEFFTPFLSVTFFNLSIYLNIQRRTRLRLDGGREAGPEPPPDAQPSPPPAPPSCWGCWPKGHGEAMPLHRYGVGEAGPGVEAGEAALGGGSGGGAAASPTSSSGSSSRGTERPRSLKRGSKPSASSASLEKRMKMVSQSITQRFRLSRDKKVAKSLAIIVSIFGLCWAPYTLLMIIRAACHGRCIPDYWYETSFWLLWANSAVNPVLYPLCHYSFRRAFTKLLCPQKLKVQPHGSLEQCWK
- assay-explanation: Competition binding assay with [3H]-N-α-methylhistamine, rat H3 receptor
measure-name: pKi
// scale note: pKi = -log10(conc_M); give the bare number

# pKi lookup, item CN1C[C@H]2CCN(c3ccc(-c4ccc(-n5ncccc5=O)cc4)cc3)[C@H]2C1 8.09
